From: the supplement of paper PMC9112550

System: Escherichia coli TOP10;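 further: peptides expressed intracellularly from a pBAD plasmid library in pooled LB shake-flask culture, induced with 0.3% L-arabinose, DNA abundance read by NGS, three biological replicates, DESeq2 with apeglm shrinkage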
EXPERIMENTAL PROTOCOL: shrunken log2 fold change of peptide-encoding DNA abundance (4.5 h post-induction vs induction); higher = less antimicrobial activity (less host growth inhibition)
MEASUREMENT SETUP: time post-induction: 4.5 h; library: site-saturation at positions 5, 18, 19, 20
Tag: rule met if measured shrunken log2 fold change is not below -0.2, rule not met if it is.

Check out these entries, answers already filled in.
>  <SEQ>
RRIRMRPPRLPRPRPRPDWDPRP

>  <LABEL VALUE>
rule met

$$$$
>  <SEQ>
RRIRKRPPRLPRPRPRPGLWPRP

>  <LABEL VALUE>
rule met

$$$$
>  <SEQ>
RRIRVRPPRLPRPRPRPTAYPRP

>  <LABEL VALUE>
rule met

$$$$
>  <SEQ>
RRIRMRPPRLPRPRPRPMPHPRP

>  <LABEL VALUE>
rule met

$$$$
>  <SEQ>
RRIRVRPPRLPRPRPRPGRHPRP

>  <LABEL VALUE>
rule met

$$$$
>  <SEQ>
RRIRRRPPRLPRPRPRPYHSPRP

>  <LABEL VALUE>
rule met

$$$$
>  <SEQ>
RRIRWRPPRLPRPRPRPQISPRP

>  <LABEL VALUE>
rule not met

$$$$
>  <SEQ>
RRIRHRPPRLPRPRPRPETWPRP

>  <LABEL VALUE>
rule not met

$$$$

Query: Is shrunken log2 fold change for `RRIRPRPPRLPRPRPRPWKDPRP` at or above -0.2?
Reply: rule met

Query: Kindly determine if shrunken log2 fold change recorded for `RRIRFRPPRLPRPRPRPYFHPRP` is above or exactly -0.2.
Reply: rule not met

Query: Please indicate if the recorded shrunken log2 fold change for `RRIRFRPPRLPRPRPRPGNAPRP` meets or exceeds -0.2.
Reply: rule met

Query: Is shrunken log2 fold change for `RRIRTRPPRLPRPRPRPIPSPRP` at or above -0.2?
Reply: rule not met

Query: Threshold query (shrunken log2 fold change >= -0.2) on `RRIRSRPPRLPRPRPRPWAFPRP`
Reply: rule met
